- System: A498 renal
- ASSAY TEXT: NCI-60 one-dose screen, 48 h
- CONDITION DESCRIPTION: 10 µM unless noted
About 83,000 compounds went through this panel and 20% of them were active in at least one assay; those are over-represented in the sample as a whole. The source made the active and inactive calls. How the source made its calls: active means growth percent below 10; inactive means the rest.
Outcome codes: TRUE = active, FALSE = inactive

> print(dat)
                                        smi  category
1  O=C(Cn1c2ccccc2c2ccncc21)N/N=C/c1cc(O)c(O)c(O)c1     FALSE
2  COc1cc(NC(=O)c2cc(OC)c3ccn(C)c3c2)cc2c1C[C@]1(C)CC[C@@H](O)C(C)(C)[C@H]1O2      TRUE
3  O=C(Nc1cccc(-n2ccc3c(NC(=O)c4ccccc4)nccc32)c1)c1cc(N2CCOCC2)cc(C(F)(F)F)c1      TRUE
4  c1ccc(-c2nc3sc(C(c4ccccc4)c4ccccc4)nn3c2-c2ccccc2)cc1     FALSE
5  c1ccc(OCC[P+](c2ccccc2)(c2ccccc2)c2ccccc2)cc1     FALSE
6  O=C(COc1ccc(Cl)cc1)N1CCN(Cc2ccc3c(c2)OCO3)CC1     FALSE
7  c1ccc([Se]CCCN2CCN(CCC[Se]c3ccccc3)CC2)cc1     FALSE
8  COc1cc(-c2nc(N)n(CC(=O)Nc3ccc(/C(C)=N\O)cc3)n2)cc(OC)c1OC     FALSE
9     O=c1c2ccccc2sc2c(N3CCCC3)nc3ccccc3c12     FALSE

----------
- Test system: SF-268 CNS
- ASSAY TEXT: NCI-60 one-dose screen, 48 h (100 = growth as untreated, 0 = no growth, -100 = all killed)
- CONDITION DESCRIPTION: 10 µM unless noted
- Protocol: Cells are grown in 96 well plates and exposed to the test compound for 48 hours. Compounds are tested at a single concentration, which is 10^-5 M for most compounds. The reported endpoint is percent growth (GI% or GIPRCNT), where numbers from 0 - 100% represent growth inhibition, and numbers from -100% - 0 represent cell death. For example, a value of 40 represents 60% growth inhibition. A value of 0 means no net growth occurred over the course of the experiment. […]
Compounds without any hit were thinned out: in the full panel of roughly 83,000, 20% have a hit.
Classification scheme (growth): b0 = under 40%, b1 = from 40% up to 70%, b2 = 70% and over

> print(dat)
                                    compound  test.target  category
 1  CN1C(=O)C2(NN=C(c3cccc4ccccc34)S2)c2ccccc21 (stereo not given)   SF-268 CNS        b0
 2  NS(=O)(=O)c1ccc(CCN2C(=O)/C(=C\c3ccc(Cl)cc3)C=C2c2ccc(Oc3ccccc3)cc2)cc1   SF-268 CNS        b2
 3  CC(C)(CCN=C(N)Nc1ccccn1)c1ccc(C(F)(F)F)cc1   SF-268 CNS        b1
 4     Cn1c(I)c(C#C[Si](C)(C)C)c(=O)[nH]c1=O   SF-268 CNS        b0
 5  O=C(/C=C/c1ccccc1)Oc1ccc(/C=C/c2cc(OC(=O)/C=C/c3ccccc3)cc(OC(=O)/C=C/c3ccccc3)c2)cc1   SF-268 CNS        b2
 6    CN(C)c1ccc2cc(-c3nc4ccccc4s3)c(N)nc2c1   SF-268 CNS        b1
 7  CN(C)c1ccc(/C=c2\s/c(=C\C(=O)C(C)(C)C)[nH]c2=O)cc1   SF-268 CNS        b2
 8  COc1ccc(C[C@H](N)C(=O)N[C@@H]2[C@@H](CO)OC(n3cnc4c(N(C)C)ncnc43)[C@@H]2O)cc1 (stereo not given in full)   SF-268 CNS        b0
 9    CN(C)CCNc1nc2ccccc2c2c(=O)c3ccccc3sc12   SF-268 CNS        b0
10        O=C1COc2ccccc2C(=O)N1CCCCNc1ccccc1   SF-268 CNS        b2
